Reported IC50 values for the following compounds.
Test system: Granta-519
Test Protocol: Cytotoxicity against human Granta-519 cells assessed as reduction in cell viability incubated for 72 hrs by MTS assay
Type: functional, cell-based
Cond: Granta-519, 72 h
API: value field is a number in µM; no unit string.

>>> observed_value("CC1CC(C)CN(S(=O)(=O)c2ccc3c(c2)C(=NO)c2cc(S(=O)(=O)N4CC(C)CC(C)C4)ccc2C3=NOCCCNC(=O)CCNc2cccc3c2C(=O)N(C2CCC(=O)NC2=O)C3=O)C1 (stereo not given)")
0.323
>>> observed_value("CC1CC(C)CN(S(=O)(=O)c2ccc3c(c2)C(=NO)c2cc(S(=O)(=O)N4CC(C)CC(C)C4)ccc2C3=NOCCCNC(=O)CCOCCNc2cccc3c2C(=O)N(C2CCC(=O)NC2=O)C3=O)C1 (stereo not given)")
1.04
>>> observed_value("CC1CC(C)CN(S(=O)(=O)c2ccc3c(c2)/C(=N/O)c2cc(S(=O)(=O)N4CCN(C(=O)CCCCCCCCCCNc5cccc6c5C(=O)N(C5CCC(=O)NC5=O)C6=O)CC4)ccc2/C3=N\\O)C1 (stereo not given)")
1.16
>>> observed_value("CC1CC(C)CN(S(=O)(=O)c2ccc3c(c2)C(=NO)c2cc(S(=O)(=O)N4CC(C)CC(C)C4)ccc2C3=NOCCCNC(=O)CCCCNc2cccc3c2C(=O)N(C2CCC(=O)NC2=O)C3=O)C1 (stereo not given)")
0.523

Bench note: what IC50 did CC1CC(C)CN(S(=O)(=O)c2ccc3c(c2)C(=NO)c2cc(S(=O)(=O)N4CC(C)CC(C)C4)ccc2C3=NOCCCNC(=O)CCCCCCNc2cccc3c2C(=O)N(C2CCC(=O)NC2=O)C3=O)C1 (stereo not given) show? 0.53

Bench note: what IC50 did CC1CC(C)CN(S(=O)(=O)c2ccc3c(c2)/C(=N/O)c2cc(S(=O)(=O)N4CCN(C(=O)CCCCNc5cccc6c5C(=O)N(C5CCC(=O)NC5=O)C6=O)CC4)ccc2/C3=N\O)C1 (stereo not given) show? 0.496

###

Target Entity: Protein cereblon/F-box-like/WD repeat-containing protein TBL1X (Homo sapiens) (UniProt Q96SW2+O60907)
Sequence (O60907 whole entry, looked up): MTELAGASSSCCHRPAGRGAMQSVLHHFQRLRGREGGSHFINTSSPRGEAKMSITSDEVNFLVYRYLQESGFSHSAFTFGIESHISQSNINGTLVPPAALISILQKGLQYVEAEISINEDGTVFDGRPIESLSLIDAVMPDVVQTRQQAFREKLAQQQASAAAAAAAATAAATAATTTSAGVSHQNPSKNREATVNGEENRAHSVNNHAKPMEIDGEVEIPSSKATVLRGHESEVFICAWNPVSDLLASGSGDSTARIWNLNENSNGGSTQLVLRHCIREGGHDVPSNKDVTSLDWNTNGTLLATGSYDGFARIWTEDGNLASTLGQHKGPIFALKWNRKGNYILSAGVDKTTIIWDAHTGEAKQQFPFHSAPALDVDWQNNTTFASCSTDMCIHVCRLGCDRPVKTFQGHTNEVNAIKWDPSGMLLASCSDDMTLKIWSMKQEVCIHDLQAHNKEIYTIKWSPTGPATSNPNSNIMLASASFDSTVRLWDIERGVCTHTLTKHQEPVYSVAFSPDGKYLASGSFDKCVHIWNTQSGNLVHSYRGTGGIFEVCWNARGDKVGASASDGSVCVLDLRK
Sequence (Q96SW2 whole entry, looked up): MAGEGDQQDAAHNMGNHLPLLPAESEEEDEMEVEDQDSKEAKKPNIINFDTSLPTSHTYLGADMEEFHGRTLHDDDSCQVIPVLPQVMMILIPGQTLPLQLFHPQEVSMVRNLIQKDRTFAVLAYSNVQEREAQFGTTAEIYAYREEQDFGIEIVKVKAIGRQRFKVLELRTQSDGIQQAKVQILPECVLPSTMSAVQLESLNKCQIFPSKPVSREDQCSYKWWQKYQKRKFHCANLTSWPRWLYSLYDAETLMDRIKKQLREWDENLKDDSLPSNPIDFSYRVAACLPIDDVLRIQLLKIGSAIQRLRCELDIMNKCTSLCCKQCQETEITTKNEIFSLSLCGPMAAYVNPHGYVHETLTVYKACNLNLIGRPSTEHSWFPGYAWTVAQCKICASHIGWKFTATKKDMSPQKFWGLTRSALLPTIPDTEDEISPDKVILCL
Test Protocol: PROTAC activity at CRBN/TBL1X in human Ri-1 cells assessed as […] TBL1X level at 1 uM incubated for 6 hrs by Western blotting analysis (reference value: 1)
Type: cell-based
Attribute Measured: fold change (FC)

Worked examples, 3 molecules total:
>>> observed_value("CC1CC(C)CN(S(=O)(=O)c2ccc3c(c2)C(=NO)c2cc(S(=O)(=O)N4CC(C)CC(C)C4)ccc2C3=NOCCCNC(=O)CCOCCOCCOCCNc2cccc3c2C(=O)N(C2CCC(=O)NC2=O)C3=O)C1 (centres undefined)")
0.59
>>> observed_value("CC1CC(C)CN(S(=O)(=O)c2ccc3c(c2)C(=NO)c2cc(S(=O)(=O)N4CC(C)CC(C)C4)ccc2C3=NOCCCNC(=O)CCCCNc2cccc3c2C(=O)N(C2CCC(=O)NC2=O)C3=O)C1 (centres undefined)")
0.61
>>> observed_value("CC1CC(C)CN(S(=O)(=O)c2ccc3c(c2)/C(=N/O)c2cc(S(=O)(=O)N4CCN(C(=O)CCCCNc5cccc6c5C(=O)N(C5CCC(=O)NC5=O)C6=O)CC4)ccc2/C3=N\\O)C1 (centres undefined)")
0.91

The record that follows has no fold change (FC) shown yet.
Bench note: what fold change (FC) did CC1CC(C)CN(S(=O)(=O)c2ccc3c(c2)/C(=N/O)c2cc(S(=O)(=O)N4CCN(C(=O)CCCCCCCCCCNc5cccc6c5C(=O)N(C5CCC(=O)NC5=O)C6=O)CC4)ccc2/C3=N\O)C1 (centres undefined) show? 0.92
